molecular target: T1, human MHC class II DR protein (DRA*0101/DRB1*0401), purified from PRIESS cells (human, UniProt P01903 26-254; P01911 30-266, limits assumed); test: ELISA, coated antigen, Fab 100 ng/well, read at 370 nm
T1 construct: mature; also called HLA-DR protein; MHCII
T1 MHC II alpha: not shown
T1 MHC II beta: not shown
Assay metric: ELISA signal
Lab note: write the figure by itself, no unit.

The reported ELISA signal of the binder MS-GPC-8-27-41 Fab (Fab, V domains shown, Fab: VH-CH1 with FLAG tag and STREP tag II, VL-CL; VH residue 1 is Q in Fab; also called 1D09C3) VH: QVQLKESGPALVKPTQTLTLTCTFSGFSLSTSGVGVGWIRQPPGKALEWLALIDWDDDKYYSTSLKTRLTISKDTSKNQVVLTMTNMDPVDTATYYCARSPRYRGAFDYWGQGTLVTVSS VL: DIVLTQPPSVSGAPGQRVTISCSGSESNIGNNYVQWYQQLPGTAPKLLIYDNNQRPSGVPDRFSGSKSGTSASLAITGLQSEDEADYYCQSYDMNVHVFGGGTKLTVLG was 1.52

The reported ELISA signal of the binder MS-GPC-8-27-10 Fab (Fab, V domains shown, Fab: VH-CH1 with FLAG tag and STREP tag II, VL-CL; VH residue 1 is Q in Fab) VH: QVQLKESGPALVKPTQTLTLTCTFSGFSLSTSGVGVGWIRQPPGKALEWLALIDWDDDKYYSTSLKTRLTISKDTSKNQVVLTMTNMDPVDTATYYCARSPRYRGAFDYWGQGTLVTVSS VL: DIVLTQPPSVSGAPGQRVTISCSGSESNIGANYVNWYQQLPGTAPKLLIYDNNQRPSGVPDRFSGSKSGTSASLAITGLQSEDEADYYCQSYDMNVHVFGGGTKLTVLG was 1.49

The reported ELISA signal of the binder MS-GPC-8-6 Fab (Fab, V domains shown, Fab: VH-CH1 with FLAG tag and STREP tag II, VL-CL; VH residue 1 is Q in Fab) VH: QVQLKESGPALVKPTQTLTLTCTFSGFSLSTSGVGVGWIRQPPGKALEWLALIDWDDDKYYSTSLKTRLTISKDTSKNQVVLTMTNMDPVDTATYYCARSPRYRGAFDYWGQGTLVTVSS VL: DIVLTQPPSVSGAPGQRVTISCSGSSSNIGSNYVSWYQQLPGTAPKLLIYDNNQRPSGVPDRFSGSKSGTSASLAITGLQSEDEADYYCQSYDYDHYVFGGGTKLTVLG was 1.31

Values compiled from patent US7521047.
